The values you see were collected from the supplement of paper PMC10307832.

# Tested on: NCI-H1650
# test_protocol: relative viability (nuclei count vs DMSO), 5 days (fraction); higher = more cells survive
# condition_info: first compound 0.02 µM
quantity_measured: relative viability
Enter a number only.

Give relative viability (NCI-H1650) of the following molecule: CC(=O)O[C@@]12CO[C@@H]1C[C@H](O)[C@@]1(C)C(=O)[C@H](O)C3=C(C)[C@@H](OC(=O)[C@H](O)[C@@H](NC(=O)OC(C)(C)C)c4ccccc4)C[C@@](O)([C@@H](OC(=O)c4ccccc4)[C@H]21)C3(C)C [Docetaxel] + CC1(C)CCC(c2ccc(Cl)cc2)=C(CN2CCN(c3ccc(C(=O)NS(=O)(=O)c4ccc(N[C@H](CCN5CCOCC5)CSc5ccccc5)c(S(=O)(=O)C(F)(F)F)c4)cc3)CC2)C1 [Navitoclax] (partner 0.5 µM)
0.104

And what about the molecule CC(=O)O[C@@]12CO[C@@H]1C[C@H](O)[C@@]1(C)C(=O)[C@H](O)C3=C(C)[C@@H](OC(=O)[C@H](O)[C@@H](NC(=O)OC(C)(C)C)c4ccccc4)C[C@@](O)([C@@H](OC(=O)c4ccccc4)[C@H]21)C3(C)C [Docetaxel] + CCNC(=O)c1noc(-c2cc(C(C)C)c(O)cc2O)c1-c1ccc(CN2CCOCC2)cc1 [Luminespib] (partner 0.01 µM) ?
0.193

// query: CC(=O)O[C@@]12CO[C@@H]1C[C@H](O)[C@@]1(C)C(=O)[C@H](O)C3=C(C)[C@@H](OC(=O)[C@H](O)[C@@H](NC(=O)OC(C)(C)C)c4ccccc4)C[C@@](O)([C@@H](OC(=O)c4ccccc4)[C@H]21)C3(C)C [Docetaxel] + CC(C)C[C@H](NC(=O)[C@H](Cc1ccccc1)NC(=O)c1cnccn1)B(O)O [Bortezomib] (partner 0.002 µM)
0.201

Request: CC(=O)O[C@@]12CO[C@@H]1C[C@H](O)[C@@]1(C)C(=O)[C@H](O)C3=C(C)[C@@H](OC(=O)[C@H](O)[C@@H](NC(=O)OC(C)(C)C)c4ccccc4)C[C@@](O)([C@@H](OC(=O)c4ccccc4)[C@H]21)C3(C)C [Docetaxel] + Nc1nc2[nH]cc(CCc3ccc(C(=O)N[C@@H](CCC(=O)O)C(=O)O)cc3)c2c(=O)[nH]1 [Pemetrexed] (partner 0.2 µM)
0.158
